- method-description: Cytotoxicity against MDCK cells assessed as cell death by MTT assay
- Format: cell-based, Canis lupus familiaris
- recorded-conditions: dog, read-out: CTD50
Field: label. Allowed values: condition met (CC50 < 300 µM) or condition not met (CC50 >= 300 µM).

{"molecule": "CC(C)(O)Cc1cn(CC/N=C2\\C[C@H]3CC[C@]2(C)C3(C)C)nn1", "label-class": "condition not met"}
{"molecule": "CC1(C)[C@@H]2CC[C@@]1(C)/C(=N\\CCOCc1cn(CC/N=C3\\C[C@H]4CC[C@]3(C)C4(C)C)nn1)C2", "label-class": "condition met"}
{"molecule": "CCOP(=O)(CCCCn1cc(COCC/N=C2\\C[C@H]3CC[C@]2(C)C3(C)C)nn1)OCC", "label-class": "condition not met"}

Query: Field: below-cutoff. Rule: recorded CC50 strictly less than 300 µM. Subject: `C#CCOCC/N=C1\C[C@H]2CC[C@]1(C)C2(C)C`
Response: condition not met

Query: Determine if CC(N)[C@@H]1C[C@H]2CC[C@]1(C)C2 (stereo partly specified) shows CC50 strictly lower than 300 µM.
Response: condition not met

Query: Strictly below 300 µM: is that where CC50 of `CC1(C)[C@@H]2CC[C@@]1(C)/C(=N/CCOCc1cn(-c3ccccc3)nn1)C2` sits?
Response: condition met

Query: Given the entry `CC1(C)[C@@H]2CC[C@@]1(C)/C(=N/CCn1cc([Si](C)(C)C)nn1)C2` , would its reported CC50 be below 300 µM?
Response: condition met

Query: For `NC12CC3CC(CC(C3)C1)C2` , is the recorded CC50 below the cut-off of 300 µM?
Response: condition met

Query: Confirm or reject: CC50 of CC(N)C12CC3CC(CC(C3)C1)C2 (stereo unspecified) lies strictly below 300 µM
Response: condition not met

Query: Strictly below 300 µM in CC50? `CC1(C)[C@@H]2CC[C@@]1(C)/C(=N/CCOCc1cn(CCO)nn1)C2`
Response: condition not met
